Target: T1, human FcRn receptor expressed by Jurkat cells (Jurkat-FcRn) (human, UniProt P55899 24-365; P61769 21-119)
T1 construct: whole, on cells; also called hFcRn
T1 sequence (P55899 24-365, chain 1 of 2): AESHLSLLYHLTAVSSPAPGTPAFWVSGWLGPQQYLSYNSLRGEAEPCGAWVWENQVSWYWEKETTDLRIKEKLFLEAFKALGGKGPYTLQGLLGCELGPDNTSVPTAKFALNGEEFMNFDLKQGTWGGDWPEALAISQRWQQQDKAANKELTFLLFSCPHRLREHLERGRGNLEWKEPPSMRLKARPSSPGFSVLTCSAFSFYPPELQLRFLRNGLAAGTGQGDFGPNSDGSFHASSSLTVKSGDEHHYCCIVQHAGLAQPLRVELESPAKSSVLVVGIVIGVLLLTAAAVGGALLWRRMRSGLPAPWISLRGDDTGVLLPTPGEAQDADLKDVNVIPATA
T1 sequence (P61769 21-119, chain 2 of 2): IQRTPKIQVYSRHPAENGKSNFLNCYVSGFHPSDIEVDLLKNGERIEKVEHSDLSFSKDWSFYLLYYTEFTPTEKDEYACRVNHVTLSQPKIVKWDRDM
Assay: flow cytometry competition on Jurkat-FcRn cells, displacement of Rituxan-A488 (25 µg/ml), pH 6
readout: pIC50
# pIC50 = -log10(concentration in molar units)

Previously resolved entries follow.
A3A-184EY_CHO (Y296W/K334N/P352S/A378V/V397M/N434Y), Fc variant produced in CHO cells (other, probably a misprint; also called Fc A3A-184EY CHO) DKTHTCPPCPAPELLGGPSVFLFPPKPKDTLMISRTPEVTCVVVDVSHEDPEVKFNWYVDGVEVHNAKTKPREEQWNSTYRVVSVLTVLHQDWLNGKEYKCKVSNKALPAPIENTISKAKGQPREPQVYTLSPSRDELTKNQVSLTCLVKGFYPSDIVVEWESNGQPENNYKTTPPMLDSDGSFFLYSKLTVDKSRWQQGNVFSCSVMHEALHYHYTQKSLSLSPGK
7.82
Fc MST-HN fragment containing the mutations M252Y/S254T/T256E/H433K/N434F, produced in HEK-293 cells (other, UniProt P01857-1 104-330, looked up, name in EU numbering) DKTHTCPPCPAPELLGGPSVFLFPPKPKDTLYITREPEVTCVVVDVSHEDPEVKFNWYVDGVEVHNAKTKPREEQYNSTYRVVSVLTVLHQDWLNGKEYKCKVSNKALPAPIEKTISKAKGQPREPQVYTLPPSRDELTKNQVSLTCLVKGFYPSDIAVEWESNGQPENNYKTTPPVLDSDGSFFLYSKLTVDKSRWQQGNVFSCSVMHEALKFHYTQKSLSLSPGK
7.85

pIC50 reported for this binder A3A-184AY_CHO (K334N/P352S/A378V/V397M/N434Y), Fc variant produced in CHO cells (other, also called Fc A3A-184AY CHO) DKTHTCPPCPAPELLGGPSVFLFPPKPKDTLMISRTPEVTCVVVDVSHEDPEVKFNWYVDGVEVHNAKTKPREEQYNSTYRVVSVLTVLHQDWLNGKEYKCKVSNKALPAPIENTISKAKGQPREPQVYTLSPSRDELTKNQVSLTCLVKGFYPSDIVVEWESNGQPENNYKTTPPMLDSDGSFFLYSKLTVDKSRWQQGNVFSCSVMHEALHYHYTQKSLSLSPGK : 7.89

pIC50 reported for this binder A3A-184AY_TGg, Fc variant A3A-184AY produced in the transgenic goat (other) DKTHTCPPCPAPELLGGPSVFLFPPKPKDTLMISRTPEVTCVVVDVSHEDPEVKFNWYVDGVEVHNAKTKPREEQYNSTYRVVSVLTVLHQDWLNGKEYKCKVSNKALPAPIENTISKAKGQPREPQVYTLSPSRDELTKNQVSLTCLVKGFYPSDIVVEWESNGQPENNYKTTPPMLDSDGSFFLYSKLTVDKSRWQQGNVFSCSVMHEALHYHYTQKSLSLSPGK : 7.92
